System: K4 kissing-loop RNA reporter;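 note: bound reporter read as fluorescence of individual clusters on recovered sequencing chips by microscopy, with normalized cluster intensities fitted with a binding model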
Test: apparent KD of K4 kissing-loop reporter; higher = weaker reporter binding
Conditions: Eterna round: R107; input ligand: FMN 200 uM
MEASUREMENT KIND: apparent KD of K4 kissing-loop reporter

GUAUCGCUAGGAGGAUAUUUCAAAUCGCCAAUAAAUGGUGAUACGGAGUGAUGUUCCGAUUUACGGAAAGAAGGCCUAGUGAUAC [FMN B 6] = 135 nM
GGGUGGGUGCGAGGAUAUGGAGUGAUGUUCCAAAAGAAAAGAAGAGAAGAGAAAGAGAGAAAGAAACCAGAAGGCGCGUCCGUCC = 115 nM
GUAUCGCUAGGAGGAUAUUUCGUUUUUCAUAGCAAUGGCUAUGCGGAGUGAUGUUCCGAUUUACCGAAAGAAGGCCUAGUGAUAC [FMN B 25] = 95.2 nM

----------
System: MS2 coat protein
Assay: apparent KD of MS2 coat protein; designed switch direction (-1 OFF switch, 1 ON switch): 1; higher = weaker reporter binding
Settings: input ligand: microRNA oligo, concentration not stated
MEASUREMENT KIND: apparent KD of MS2 coat protein (nM)

CAGUACAUUCAAGGAUAUUCUCCAUGGAAAGUAGAAGAAGGUGAAACAUGAGGAUCACCCAUGUAGAAAGGAACAUUCGUACUG [Eternabot solution 34] (Eterna round: R96, puzzle: Same State NG 1) = 147
CAGCUCGUGUGAGGAUAUGCCGCCGUUUCGGCUGCAGAAGGUGCUACGUUACAUGAGGAUCACCCAUGUCUCUGUUGUUUCGUU [salish99_SSNG1_r04_950] (Eterna round: R96, puzzle: Same State NG 1) = 18.2
GCUCGCACGAUGACCGACAUGAGGAUCACCCAUGUGUGUCGGUAGGAUAUCUAUAUUAAGGAUUUAGAGAAGGGCCGAGCGAGC [SameState NG3 #21] (Eterna round: R96, puzzle: Same State NG 3) = 104
ACAUGAGACCAAGGAUAUGUUGUACCUACAUGUGACAUGAGGAUCACCCAUGUGGUAAGUAUGAGACAGAAGGUGGAGAUAUGU [Equivalence 27 - Jieux - Same State NG 2] (Eterna round: R96, puzzle: Same State NG 2) = 44.3
ACUAGAAACGGGCAAUAACACAUGAGGAUCACCCAUGUGACACAGGAUAUAACCAGAUCAGAAAGUUAGAAGGGUGAGCCCGCA [Edraed] (Eterna round: R96, puzzle: Same State NG 3) = 25.9
GCGAGCGUACUUGCAGACAUGAGGAUCACCCAUGUAACUGGGUAGGAUAUGGUACCGUUUCGGUACCAGAAGGACUUAUGAAAG [JL SSNG3 1.50] (Eterna round: R96, puzzle: Same State NG 3) = 35
GUAGCAUACCGAGGAUAUUCAUAUAAUAAUAACAUGAGGAUCACCCAUGUAAGGCGAAAGCCUUGGGAGAAGGCGGAAUGCUAC [Xeonanis - 20 Mod60] (Eterna round: R96, puzzle: Same State NG 2) = 30
AGGACGAGCACAGGAUAUCCGUGGAACAGACACGGAGAAGGGUGAAGUCAUGGAAAGAAAAGACAUGAGGAUCACCCAUGUAAA [Eszaonin] (Eterna round: R96, puzzle: Same State NG 1) = 61.3
CUGAGAUGUCAAGGAUAUCACGUCGAUUAGACGUGAGAAGGUGAUCUGCACAUGAGGAUCACCCAUGUGUUACAUGGAACUCAG [Brourd's SSNG1/1-A2 mod 11] (Eterna round: R96, puzzle: Same State NG 1) = 386
